Assay: self-splicing fitness, log relative to wild type (ln ratio); higher = more splicing; Tetrahymena group I intron in knt gene, E. coli kanamycin selection, DiMSum; sequences stand for … in CUCUCU…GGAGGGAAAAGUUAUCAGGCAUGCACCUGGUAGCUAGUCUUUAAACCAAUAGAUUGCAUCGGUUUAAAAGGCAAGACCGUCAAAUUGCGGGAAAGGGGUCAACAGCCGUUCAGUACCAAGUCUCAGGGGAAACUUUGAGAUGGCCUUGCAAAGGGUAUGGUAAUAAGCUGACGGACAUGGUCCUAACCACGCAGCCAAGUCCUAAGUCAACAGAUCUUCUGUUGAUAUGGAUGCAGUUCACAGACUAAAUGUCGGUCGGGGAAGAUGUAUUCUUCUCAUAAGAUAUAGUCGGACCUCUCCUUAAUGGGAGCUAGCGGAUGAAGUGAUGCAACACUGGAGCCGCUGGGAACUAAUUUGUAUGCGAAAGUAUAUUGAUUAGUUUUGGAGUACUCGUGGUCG;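 also: selection with 25 µg/mL kanamycin versus none on LB agar overnight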
Settings: 37 °C
We'd kindly ask you to apply these self-splicing fitness (ln) classes: low: < -2; moderate: ≥ -2 and < -1; high: ≥ -1

* CGGAAGCAAUAUUACGUCUG | low
* CCCGAGCAAUAUUACGACCC | high
* AAAUAGCAAUAUUACGAUAG | low
* UCGUAGCAAUAUUACGGACA | moderate
* CAGUAGCAAUAUUACGGUAC | low
* CUACAGCAAUAUUACGAUCC | moderate
* AUCAAGCAAUAUUACGAUCG | low
* AGGCAGCAAUAUUACGUCGA | high
* CCUUAGCAAUAUUACGUCGC | low
* UGAGAGCAAUAUUACGAUCG | low
